Test system: E-tag antibody
Experiment: ELISA analysis of phage on antibody raised against ETAG (positive control)
Conditions: peptide binding to E-tag antibody; phage ELISA units read at 405 nm
No end group written: not given here.
Binarize ETAG (OD) at 20 OD; below is T, at or above is F.

Item RPVVCLAGLTLAQFGWVFPGWRGWS (DGI-2-20C-3-C1039; listed as Escherichia coli) : ETAG (OD) beneath 20 OD, strictly?
T

Continue with V#CR#LCRLCRFSMRCGGLSLVLGSAAAFFCEVFVGFCV (VCRLCRLCRFSMRCGGLSLVLGSAAAFFCEVFVGFCV; not fully specified (residues 1, 3); cysteine pairing not given here; also: TAA stop codons (#) after V1 and after R3; listed as Escherichia coli) [DGI-2-40F-4-E1130]
T

Next:
Item LGRTFVWGTCLHLSVSRFGH (DGI-2-20F-PP-C3; listed as Escherichia coli) : ETAG (OD) beneath 20 OD, strictly?
F

Continue with RQRSGGRWVVDRVTRVASTSP (DGI-2-20F-PP-B12; listed as Escherichia coli)
T

FYI, the data here is from patent US7056679B2.
